Data origin, for the record: patent US20250034170A1

I'd appreciate it if you could supply EC50 values for the items below.
Molecular target: GCase (Homo sapiens, UniProt P04062)
Construct: endogenous in cells; host or cells: HeLa cells
Sequence (P04062 40-536): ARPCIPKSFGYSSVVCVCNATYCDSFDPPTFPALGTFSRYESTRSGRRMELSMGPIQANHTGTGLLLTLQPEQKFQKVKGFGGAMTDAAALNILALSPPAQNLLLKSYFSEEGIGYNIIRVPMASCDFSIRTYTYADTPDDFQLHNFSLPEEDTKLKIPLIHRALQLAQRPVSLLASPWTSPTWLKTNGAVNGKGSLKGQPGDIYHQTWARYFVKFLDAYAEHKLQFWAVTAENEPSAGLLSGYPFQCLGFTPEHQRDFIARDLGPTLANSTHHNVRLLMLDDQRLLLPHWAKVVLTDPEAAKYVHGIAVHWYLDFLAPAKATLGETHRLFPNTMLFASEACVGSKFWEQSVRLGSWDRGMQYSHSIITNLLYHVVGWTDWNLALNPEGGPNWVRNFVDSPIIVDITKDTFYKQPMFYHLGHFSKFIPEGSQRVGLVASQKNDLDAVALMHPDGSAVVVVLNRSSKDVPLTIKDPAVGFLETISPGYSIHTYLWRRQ
Experiment: activation of GCase in a live cell PFB assay in HELA cells
Format: cell-based
Settings: activation of GCase, EC50 ranges

Given the compound O=C1CCC2(CCN(c3cnc4cnn(CC(F)F)c4n3)CC2)CN1c1ccc(C(F)(F)F)cn1 , write its reported EC50.
10 to 50 µM

Given the compound FC(F)Cn1ncc2ncc(N3CCC4(CC3)CC(COc3cccnc3C(F)(F)F)C4)nc21 , write its reported EC50.
10 to 50 µM

Given the compound FC(F)Cn1ncc2ncc(N3CCC4(CCC(Oc5cccc(C(F)(F)F)n5)C4)CC3)nc21 (stereo not drawn) , write its reported EC50.
10 to 50 µM

Given the compound O=C1CC2(CCN(c3cnc4cnn(CC(F)F)c4n3)CC2)CN1c1cncc(C(F)(F)F)c1 , write its reported EC50.
10 to 50 µM

Given the compound O=C1N(c2cc(C(F)(F)F)ccn2)CCC12CCN(c1cncc(N3CCCC3)n1)CC2 , write its reported EC50.
10 to 50 µM

Given the compound Cc1nn(CC(F)F)c2nc(N3CCC4(CC(=O)N(c5ccnc(C(F)(F)F)c5)C4)C3)cnc12 (stereo not drawn) , write its reported EC50.
10 to 50 µM

Given the compound O=C(c1ccc(C(F)(F)F)nc1)N1CC2(CCN(c3cnc4cnn(CC(F)F)c4n3)C2)C1 , write its reported EC50.
10 to 50 µM

Given the compound O=C(Cc1csc(-c2ccccc2)n1)N1CCCC2(C1)CN(c1ccccc1)C2 , write its reported EC50.
10 to 50 µM

Given the compound Cn1cc(N2CCC3(CCN(c4cnc5cnn(CC(F)F)c5n4)CC3)C2=O)ccc1=O , write its reported EC50.
10 to 50 µM

Given the compound O=C1CC2(CCN(c3ncc4cnn(CC(F)F)c4n3)CC2)CN1c1ccc(OCC(F)(F)F)nc1 , write its reported EC50.
10 to 50 µM

Given the compound Cc1nc(N2CC[C@]3(CCN(c4ncc5c(C)nn(C6COC6)c5n4)C3)C2)cc(C(F)(F)F)n1 , write its reported EC50.
10 to 50 µM

Given the compound FC(F)Cn1ncc2ncc(N3CCC4(CC3)CN(c3ccc(C(F)(F)F)nc3)C4)nc21 , write its reported EC50.
< 10 µM

Given the compound FC(F)Cn1ncc2ncc(N3CCC4(CCN(c5ccc(C(F)(F)F)nc5)C4)CC3)nc21 , write its reported EC50.
< 10 µM

Given the compound O=C1N(c2cncc(C(F)(F)F)n2)CCC12CCN(c1cnc3cnn(C4COC4)c3n1)CC2 , write its reported EC50.
10 to 50 µM

Given the compound CCc1csc(CN2CC3(CCN(c4cnc5cnn(CC(F)F)c5n4)CC3)CC2=O)n1 , write its reported EC50.
10 to 50 µM

* * *

Target: GCase (Homo sapiens)
Construct: endogenous in cells; host or cells: HeLa cells
Test: activation of GCase in a live cell PFB assay in HELA cells
Type: cell-based
Details: activation of GCase, EC50 ranges
I'd appreciate it if you could supply EC50 values for the items below.

Given the compound FC(F)(F)c1cc(N2CCCC3(C2)CN(c2cnc4cnn(Cc5ccccc5)c4n2)C3)ccn1 [Compound 104] , write its reported EC50.
10 to 50 µM

Given the compound Cc1ncc(N2CC3(CCN(c4cnc5cnn(CC(F)F)c5n4)CC3)C2)c(C(F)(F)F)n1 [Cmpd 561] , write its reported EC50.
10 to 50 µM

Given the compound CCOc1nn(C2COC2)c2nc(N3CCC4(CN(c5ccnc(C(F)(F)F)c5)C4)C3)ncc12 [Cmpd 946] , write its reported EC50.
10 to 50 µM

Given the compound FC(F)Cn1ncc2ncc(N3CCC4(C3)CN(c3ccnc(C(F)(F)F)c3)C4)cc21 [Cmpd 635] , write its reported EC50.
< 10 µM

Given the compound CCn1ncc2cnc(N3CCC4(CC3)CC(=O)N(c3ccc(C(F)(F)F)nc3)C4)nc21 [Cmpd 889] , write its reported EC50.
< 10 µM

Given the compound Cc1nn(CC(F)F)c2nc(N3CCC4(CC3)CC(=O)N(c3nccc(C(F)(F)F)n3)C4)cnc12 [Cmpd 282] , write its reported EC50.
< 10 µM

Given the compound Cc1cc(N2CCC3(CCN(c4cnc5cnn(CC(F)F)c5n4)CC3)C2)nc(C(F)(F)F)n1 [Cmpd 528] , write its reported EC50.
< 10 µM

Given the compound CC(c1cnc(C(F)(F)F)nc1)N1CC2(CCN(c3cnc4cnn(CC(F)F)c4n3)CC2)CC1=O (stereo not shown) [Cmpd 914] , write its reported EC50.
10 to 50 µM

Given the compound Cc1nc(N2CC3(CCN(c4cnc5cnn(CC(C)(F)F)c5n4)C3)C2)cc(C(F)(F)F)n1 [Cmpd 1117] , write its reported EC50.
> 100 µM

Given the compound Cc1nc(N2CC3(CCN(c4nccc(-c5nncs5)n4)C3)C2)cc(C(F)(F)F)n1 [Cmpd 1131] , write its reported EC50.
> 100 µM

Given the compound Cc1nn(CC(F)F)c2nc(N3CCC4(CC3)CC(=O)N(c3ccc(C(F)(F)F)nc3)C4)cnc12 [Cmpd 258] , write its reported EC50.
< 10 µM

Given the compound COc1nc2cnn(CC(F)F)c2nc1N1CCC2(CC1)CCN(c1ccc(C(F)(F)F)nc1)C2=O [Cmpd 834] , write its reported EC50.
< 10 µM

Given the compound FC(F)Cn1ncc2ncc(N3CC4(CN(c5ccc(C(F)(F)F)cn5)CCO4)C3)nc21 [Compound 172] , write its reported EC50.
10 to 50 µM

* * *

Molecular target: GCase (Homo sapiens, UniProt P04062)
Construct: endogenous in cells; host or cells: HeLa cells
Experiment: activation of GCase in a live cell PFB assay in HELA cells
Type: cell-based
Settings: activation of GCase, EC50 ranges
pEC50: −log10 of the molar value.
Quantity kind: pEC50

Given the compound O=C1CCC2(CN(c3cnc4cnn(CC(F)F)c4n3)C2)CN1c1ccc(C(F)(F)F)cn1 [Cmpd 315] , write its reported pEC50.
4.30 to 5.00

Given the compound Cc1nc(N2CCC3(CCN(c4ncc5cnn(C6COC6)c5n4)C3)C2)cc(C(F)(F)F)n1 (stereo not drawn) [Cmpd 545] , write its reported pEC50.
< 4.00

Given the compound FC(F)Cn1ncc2ncc(N3CCC4(CN(c5cnc(C(F)F)nc5)C4)C3)nc21 [Cmpd 958] , write its reported pEC50.
> 5.00

Given the compound Cc1cc(C(F)(F)F)cnc1N1CCC2(CCN(c3cnc4cnn(CC(F)F)c4n3)CC2)C1=O [Cmpd 775] , write its reported pEC50.
< 4.00

Given the compound CCN1C(=O)N(c2ccc(C(F)(F)F)cc2)C(=O)C12CCN(c1cnc3cnn(C4COC4)c3n1)CC2 [Cmpd 869] , write its reported pEC50.
4.30 to 5.00

Given the compound CCN1C(=O)N(c2ccc(C(F)(F)F)cc2)C(=O)C12CCN(c1cnc3cnn(CC(F)F)c3n1)CC2 [Cmpd 868] , write its reported pEC50.
4.30 to 5.00

Given the compound Cc1nn(CC(F)F)c2nc(N3CCC4(CC3)CC(=O)N(c3cc(C(F)(F)F)ccn3)C4)cnc12 [Cmpd 283] , write its reported pEC50.
> 5.00

Given the compound FC(F)Cn1ncc2ncc(N3CCC4(CCN(c5ncccc5C(F)(F)F)CC4)C3)nc21 [Compound 151] , write its reported pEC50.
4.30 to 5.00

Given the compound Cc1nn(C2COC2)c2nc(N3CCC4(CN(c5cnc(C(F)(F)F)nc5)C4)C3)ncc12 [Cmpd 460] , write its reported pEC50.
> 5.00

Given the compound O=C1N(c2ccncc2C(F)(F)F)CCC12CCN(c1cnc3cnn(CC(F)F)c3n1)CC2 [Cmpd 677] , write its reported pEC50.
4.30 to 5.00

Given the compound Fc1cnc(N2CCC3(CCN(c4cnc5cnn(CC(F)F)c5n4)CC3)C2)cc1C(F)(F)F [Cmpd 740] , write its reported pEC50.
> 5.00

Given the compound FC(F)Cn1ncc2ncc(N3CCC4(CCN(c5cccc(C(F)(F)F)n5)C4)CC3)nc21 [Compound 143] , write its reported pEC50.
> 5.00

Given the compound Cc1nc(N2CCC3(CCN(c4nc5c(cnn5CC(F)F)c(=O)n4C)CC3)C2)cc(C(F)(F)F)n1 [Cmpd 1053] , write its reported pEC50.
> 5.00

Given the compound Cc1nc(N2CCC3(CCN(c4cnc5cnn(C6COC6)c5n4)CC3)C2)cc(C(F)(F)F)n1 [Cmpd 574] , write its reported pEC50.
4.30 to 5.00

Given the compound FC(F)Cn1ncc2ncc(N3CCC4(CCN(c5ccnc(C(F)(F)F)c5)C4)C3)nc21 (stereo not drawn) [Cmpd 472] , write its reported pEC50.
< 4.00

Given the compound O=S(=O)(c1ccc(F)cc1)N1CC2(CCN(c3cnc4cnn(CC(F)F)c4n3)C2)C1 [Cmpd 373] , write its reported pEC50.
4.30 to 5.00

Given the compound O=C1CC2(CCN(c3cnc4cnn(CC(F)F)c4n3)CC2)CN1Cc1ccnc(OC(F)F)c1 [Cmpd 919] , write its reported pEC50.
> 5.00

Given the compound Cc1nc(N2CCC3(CCN(c4ncc5cnn(CC(F)F)c5n4)C3)C2)cc(C(F)(F)F)n1 (stereo not drawn) [Cmpd 540] , write its reported pEC50.
4.30 to 5.00
